test: Cytotoxicity against human HCT116 cells harboring wild type B-Raf assessed as growth inhibition after 72 hrs by MTT assay; type: functional, cell-based; details: HCT-116, 72 h
quantity.name: log10(IC50) (log10 of the value in µM)

| smiles.text | observed.value |
| --- | --- |
| N#CC1(c2cccc(C(=O)Nc3cccc(Nc4ccnc(NC(=O)C5CC5)c4)c3)c2)CC1 | 0.13 |
| CC(=O)Nc1cc(Nc2cccc(NC(=O)c3cccc(C4CC4)c3)c2)ccn1 | -0.44 |
| CC(C)(C#N)c1cccc(C(=O)Nc2cccc(Nc3ccnc(NC(=O)C4CC4)c3)c2)c1 | 0.04 |
| O=C(Nc1cccc(Nc2ccnc(NC(=O)C3CC3)c2)c1)c1cccc(C2CC2)c1 | -0.66 |
| CC(C)(C)c1cccc(C(=O)Nc2cccc(Nc3ccnc(NC(=O)C4CC4)c3)c2)c1 | 0.14 |
| CC(C)c1cccc(C(=O)Nc2cccc(Nc3ccnc(NC(=O)C4CC4)c3)c2)c1 | 0.02 |
| N#Cc1c(Oc2ccc(F)c(NC(=O)Cc3cccc(C(F)(F)F)c3)c2)ccc2nc(NC(=O)C3CC3)sc12 | -0.44 |
| CCCS(=O)(=O)Nc1ccc(F)c(C(=O)c2c[nH]c3ncc(-c4ccc(Cl)cc4)cc23)c1F | 1.16 |

###

molecular target: Serine/threonine-protein kinase B-raf (Homo sapiens); test: Inhibition of recombinant wild type full length human GST-tagged B-Raf expressed in baculovirus expression system using Z'-LYTE Ser/Thr3 peptide as substrate incubated for 1 hr by FRET-based Z'-LYTE assay
Sequence (P15056 whole entry): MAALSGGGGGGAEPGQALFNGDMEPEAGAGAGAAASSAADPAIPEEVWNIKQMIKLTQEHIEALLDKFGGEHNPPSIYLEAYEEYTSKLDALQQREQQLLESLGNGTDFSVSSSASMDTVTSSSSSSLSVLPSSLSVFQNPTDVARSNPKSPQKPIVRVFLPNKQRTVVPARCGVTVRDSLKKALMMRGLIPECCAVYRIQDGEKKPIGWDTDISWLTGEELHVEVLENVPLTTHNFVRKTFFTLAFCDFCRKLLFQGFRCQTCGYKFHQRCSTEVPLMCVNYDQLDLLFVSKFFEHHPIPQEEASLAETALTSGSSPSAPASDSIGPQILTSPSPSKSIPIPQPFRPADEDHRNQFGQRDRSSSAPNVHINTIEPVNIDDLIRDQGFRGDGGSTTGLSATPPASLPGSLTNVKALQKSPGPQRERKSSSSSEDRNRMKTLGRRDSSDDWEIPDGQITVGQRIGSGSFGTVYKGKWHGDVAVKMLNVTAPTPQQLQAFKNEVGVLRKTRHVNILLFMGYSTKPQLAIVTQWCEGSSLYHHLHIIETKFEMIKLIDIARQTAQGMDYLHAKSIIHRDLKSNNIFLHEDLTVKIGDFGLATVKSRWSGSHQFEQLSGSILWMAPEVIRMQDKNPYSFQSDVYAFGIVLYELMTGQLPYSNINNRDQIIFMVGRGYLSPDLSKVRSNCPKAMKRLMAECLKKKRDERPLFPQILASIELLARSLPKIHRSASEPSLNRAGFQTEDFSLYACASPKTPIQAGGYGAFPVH
pIC50: −log10 of the molar value.
Here, each record is paired with measured pIC50 data.

| smiles.text | subject.of.test | pIC50 |
| --- | --- | --- |
| CC(C)c1cccc(C(=O)Nc2cccc(Nc3ccnc(NC(=O)C4CC4)c3)c2)c1 | Serine/threonine-protein kinase B-raf (Homo sapiens) | 6.83 |
| CC(C)(C#N)c1cccc(C(=O)Nc2cccc(Nc3ccnc(NC(=O)C4CC4)c3)c2)c1 | Serine/threonine-protein kinase B-raf (Homo sapiens) | 6.32 |
| CC(C)(C)c1cccc(C(=O)Nc2cccc(Nc3ccnc(NC(=O)C4CC4)c3)c2)c1 | Serine/threonine-protein kinase B-raf (Homo sapiens) | 6.62 |
| N#Cc1c(Oc2ccc(F)c(NC(=O)Cc3cccc(C(F)(F)F)c3)c2)ccc2nc(NC(=O)C3CC3)sc12 | Serine/threonine-protein kinase B-raf (Homo sapiens) | 7.11 |
| O=C(Nc1cccc(Nc2ccnc(NC(=O)C3CC3)c2)c1)c1cccc(C2CC2)c1 | Serine/threonine-protein kinase B-raf (Homo sapiens) | 6.34 |
| N#CC1(c2cccc(C(=O)Nc3cccc(Nc4ccnc(NC(=O)C5CC5)c4)c3)c2)CC1 | Serine/threonine-protein kinase B-raf (Homo sapiens) | 5.69 |
| CC(=O)Nc1cc(Nc2cccc(NC(=O)c3cccc(C4CC4)c3)c2)ccn1 | Serine/threonine-protein kinase B-raf (Homo sapiens) | 5.92 |
